Values from ChEMBL document CHEMBL1148265

# Test system: A2780
# test_description: Cytotoxic effect on human ovarian (A2780) cancer cell line
# Assay type: functional, cell-based
Listed below: IC50 values for each entry.
Numeric only. Scale: nM

Observe how each entry below is paired with its result.
INSERT INTO measurements (structure_string, observable, scale_unit, val) VALUES
  ('CC(C)(C)c1cnc(CSc2cnc(Nc3cccnc3)s2)o1', 'IC50', 'nM', 50),
  ('CC(C)(C)c1cnc(CSc2cnc(Nc3ccccc3)s2)o1', 'IC50', 'nM', 140),
  ('CC(C)(C)c1cnc(CSc2cnc(Nc3ccccn3)s2)o1', 'IC50', 'nM', 10);

Exam item: Entry CC(C)(C)c1cnc(CSc2cnc(NC(=O)Cc3cccnc3)s2)o1 : reported IC50 = ?
Marked response: 240

Exam item: Entry CC(C)(CO)CNCc1ccc(Nc2ncc(SCc3ncc(C(C)(C)C)o3)s2)nc1 : reported IC50 = ?
Marked response: 3

Exam item: Entry CC(C)(C)c1cnc(CSc2cnc(Nc3ccc(S(=O)(=O)NCCO)cc3)s2)o1 : reported IC50 = ?
Marked response: 69
